assay-overview: Antitumor study, HT29 human colon tumor xenografts
condition-notes: female, mouse, in vivo, iv
value-kind: MTD (mg/kg)
Your answer should be a plain number; it is taken to be in mg/kg.

Data point: `Nc1ccn([C@@H]2O[C@H](CO)[C@@H](O)C2(F)F)c(=O)n1` ; MTD = 200

====

assay-overview: Pharmacokinetics in BALB/c mice
Assay type: in vivo
condition-notes: female, BALB/c, plasma, oral; mouse, 10mg/kg p.o. vs i.v.; read-out: oral bioavailability (F)
value-kind: bioavailability (%)
Your answer should be a plain number; it is taken to be in %.

Data point: `N#Cc1cnc(Nc2cc(NC[C@H]3CNCCO3)c(C(F)(F)F)cn2)cn1` ; bioavailability = 100

====

Tested on: cellular CHK1 activity, four cell lines
assay-overview: MIA, range over four cell lines
Type: cell-based
condition-notes: Homo sapiens, read-out: IC50 for cellular CHK1 inhibition (MIA), range
value-kind: IC50

Data point: `N#Cc1cnc(Nc2cc(NC[C@H]3CNCCO3)c(C(F)(F)F)cn2)cn1` ; IC50 = 30 to 220 nM

====

assay-overview: Permeability across CaCo2 cell monolayer
Type: in vitro ADME
condition-notes: human, Caco-2; CaCo2 cell monolayer; read-out: cell permeability Pe
value-kind: Papp (×10⁻⁶ cm/s)
Your answer should be a plain number; it is taken to be in ×10⁻⁶ cm/s.

Data point: `N#Cc1cnc(Nc2cc(NC[C@H]3CNCCO3)c(C(F)(F)F)cn2)cn1` ; Papp = 25

====

assay-overview: Pharmacokinetics in BALB/c mice
Assay type: in vivo
condition-notes: female, BALB/c, plasma, po; mouse, 10mg/kg p.o. vs i.v.; read-out: oral bioavailability (F)
value-kind: bioavailability (%)
Your answer should be a plain number; it is taken to be in %.

Data point: N#Cc1cnc(Nc2cc(NC[C@H]3CNCCO3)c(C(F)(F)F)cn2)cn1 [CCT245737] ; bioavailability = 105
